# systemUnderTest: PTB without the ARM linker (Mint2 residues 364-538) (human, UniProt Q99767 364-538, Y524W)
# Sequence (Q99767 364-538 Y524W): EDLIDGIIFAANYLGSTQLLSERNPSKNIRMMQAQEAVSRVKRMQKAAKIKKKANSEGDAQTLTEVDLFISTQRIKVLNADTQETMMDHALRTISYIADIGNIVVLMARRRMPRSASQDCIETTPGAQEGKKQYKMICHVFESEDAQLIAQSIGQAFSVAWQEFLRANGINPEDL
# assayOverview: stopped-flow fluorescence kinetics
# conditionParameters: both partners purified
Where no end group is shown, it is not given here. The star is where a group is joined. Dansyl = CN(C)c1cccc2c(S(=O)(=O)*)cccc12

| binder | binding result |
| --- | --- |
| Dansyl-NGYENPTFKFFE [dansyl-APP Y762F] | binds |
| Dansyl-NGYENPTYAFFE [dansyl-APP K763A] | binds |
| Dansyl-NGYENATYKFFE [dansyl-APP P760A] | binds |
